# credit: the supplement of paper PMC9170038

Test system: MS2 coat protein
Test: apparent KD of MS2 coat protein; designed switch direction (-1 OFF switch, 1 ON switch): -1; higher = weaker reporter binding
Settings: input ligand: none
Is apparent KD of MS2 coat protein at least 1000 nM? Then 1.0. If not, 0.0.

Query: Entry CGAUGUAACACAGGAUAUCAUCGCAACUGACGUUGAGAAGGGUGACAUGAGGAUCACCCAUGUGAUUUCUCAAUAUUAUACAUC [Prohibition 82 - Jieux - Exclusion NG 1] (Eterna round: R96, puzzle: Exclusion NG 1) : is its apparent KD of MS2 coat protein no less than 1000 nM?
Result: 1.0

Query: Please do the same for AUUAUGUUAGGAUAUGCUUAUGGUGGAUAGUCCAGUAUGGUGUAGAAGGGACAUGAGGAUCACCCAUGUGCUGA [EX4 #33] (Eterna round: R97, puzzle: Exclusion 4) as well.
Result: 0.0

Query: Please do the same for GGUCGACAUGAGGAUCACCCAUGUCAGGAUAUCGUCACUGGAGCUGCGGCUCCAGUGACGAGAAGGGAUAUAAU [E1/15-A3] (Eterna round: R97, puzzle: Exclusion 1) as well.
Result: 0.0

Query: Please do the same for UAUAUGUAAGGAUAUCUCGUCAUGGAGGAAACUCCAUGACGAGAGAAGGUACAUGAGGAUCACCCAUGUCUAUU [Mod of Fisker 24 - Jieux - Exclusion 4] (Eterna round: R97, puzzle: Exclusion 4) as well.
Result: 0.0

---

Tested on: MS2 coat protein
Assay: apparent KD of MS2 coat protein, switch OFF state (with FMN for OFF switches, without FMN for ON switches); designed switch direction (-1 OFF switch, 1 ON switch): -1; higher = weaker reporter binding
Details: FMN input: 0 or 200 uM; Eterna round: R93 (includes R88 designs)
property: apparent KD of MS2 coat protein (nM)
# value in nM; strip the unit string

Query: Requested read-out: apparent KD of MS2 coat protein. Entry: AUAGGCCUAGGAUAUACAUGAGGAUCACCCAUGUAAACCGAUAGAUCACGGUAAACGUGUAGAAGGAGGAAUAA [JR_Exc003_Sub207]
Result: 20.6

Query: Please do the same for GAAAAGUGAGGAUAUUCGGAUAGGAAAACGAAAACCUAUCCGAAGAAGGCACAUGAGGAUCACCCAUGUGAAAG [Mat - Exaclusion 4 - Eli mod - D43] as well.
Result: 30.9

Query: Please do the same for GUGUACAGAGGAUAUACGGGAGCUAGGAAACUAGCAACCUCACAUGAGGAUCACCCAUGUAGAAGGCUGUACAC [Ex2: 752] as well.
Result: 799

Query: Please do the same for GUAGUGUGAGGAUAUGGAUAGAAGAAGUGAAAGUAAGAGAACUAGAAGGCACAUGAGGAUCACCCAUGUAUGUG [JR_Exc004_Sub1701] as well.
Result: 53.3

Query: Please do the same for AAAACUGGAGGAUAUACGAACAUGUCAAAAGACGUGAAGGGACAUGAGGAUCACCCAUGUAGAAGGCUAGAAAA [JL Stem Breaker 10] as well.
Result: 34.2

Query: Please do the same for AAAGGACGAGGAUAUACAUGAGGAUCACCCAUGUAAAAAACAUAACAAAAGAACUUAUGUAGAAGGCGUCCAAA [69%, Moding Meechl, 2] as well.
Result: 403

Query: Please do the same for AAAAAACAUGAGGAUCACCCAUGUGAGGAUAUGAAAUUACUAAGACAACUGUAAUCAAUCAGAAGGCACAACAA [JR_Exc--1_Sub1207] as well.
Result: 38.6

Query: Please do the same for AACAGUACAGGAUAUACAUGAGGAUCACCCAUGUGAAAAUUAAGUGGAGUACCACAAGGUAGAAGGGUACUGGA [Mat - Exclusion 3 - Eli mod - D61] as well.
Result: 101

Query: Please do the same for AGUUGGCGAGGAUAUACAUGAGGAUCACCCAUGUGAAAGAAAAACUCGAAAGAGAAAAGUAGAAGGCGCUGACA [Mat - Exclusion 3 - Eli mod - D93] as well.
Result: 37.6

Query: Please do the same for GGUGGCGUAGGAUAUACAUGAGGAUCACCCAUGUGAGAGAAAAAAGUGAGAAAGAAAAGUAGAAGGACGUUACG [salish99-ex3-126] as well.
Result: 147

Query: Please do the same for CAGUACUGAGGAUAUACAUGAGGAUCACCCAUGUAUUCCAGCUAGGAAACUAGCAAAUGUAGAAGGCAGUACUG [Ex3: 825] as well.
Result: 14.8

Query: Please do the same for AAAAUACAUGAGGAUCACCCAUGUUAGGAUAUCGGAUAAAUAAAAUAAAAUAAAAUAACGAGAAGGGACAAUAA [Exclusion1 Malc#2] as well.
Result: 31.6

Query: Please do the same for AAAAAACAUGAGGAUCACCCAUGUGAGGAUAUUGGUAUUGAGGGUAUAAUCUCAAUAGCGAGAAGGCGCAUAAA [Brourd 613 Mod 14 - Jieux - Exclusion 1] as well.
Result: 45.3
